In this section, each of the compounds is paired with its reported MIC.
# Test system: Staphylococcus aureus
# test: Antibacterial activity against Staphylococcus aureus MTCC 96 after 24 hrs by agar well diffusion method
# Type: functional
# measurementSetup: MTCC 96, 24 h
Expressed in µg/mL, but write only the number.

Recorded results for 4 compounds are shown here.
1) Cc1ccccc1-n1cc(CN2C(=O)COc3ccc(Cl)cc32)nn1 ... 1.9
2) Cc1ccc(-n2cc(CN3C(=O)COc4ccc(Cl)cc43)nn2)cc1 ... 1.9
3) O=C1COc2ccc(Cl)cc2N1Cc1cn(-c2ccc(F)cc2)nn1 ... 3.9
4) O=C1COc2ccccc2N1Cc1cn(-c2ccccc2)nn1 ... 3.9

Query compound follows.
Q: Give reported MIC for `O=C(O)c1cn(C2CC2)c2cc(N3CCNCC3)c(F)cc2c1=O` (Staphylococcus aureus)
Ans: 0.9

----------
Each entry below carries its reported MIC.
# Tested on: Bacillus subtilis
# test: Antibacterial activity against Bacillus subtilis MTCC 121 after 24 hrs by agar well diffusion method
# Assay type: functional
# measurementSetup: MTCC 121, 24 h
Quick note: give the figure in µg/mL, leave out the unit.

Examples with their reported MIC follow.
1. O=C1COc2ccc(Cl)cc2N1Cc1cn(-c2ccc(F)cc2)nn1 ... 1.9
2. O=C(O)c1cn(C2CC2)c2cc(N3CCNCC3)c(F)cc2c1=O [CIPROFLOXACIN] ... 0.9
3. Cc1ccc(-n2cc(CN3C(=O)COc4ccc(Cl)cc43)nn2)cc1 ... 1.9

Please turn your attention to the following entry.
Q: Output measured MIC for this item: `Cc1ccccc1-n1cc(CN2C(=O)COc3ccc(Cl)cc32)nn1`
Ans: 1.9

----------
# System: Bacillus subtilis
# test: Bactericidal activity against Bacillus subtilis MTCC 121 measured after 24 hrs
# Format: functional
# measurementSetup: MTCC 121, 24 h
The following molecules are listed with their measured MBC values.
Return type: number; implicit unit µg/mL.

1) Cc1ccc(-n2cc(CN3C(=O)COc4ccc(Cl)cc43)nn2)cc1 ... 3.9
2) Cc1ccccc1-n1cc(CN2C(=O)COc3ccc(Cl)cc32)nn1 ... 3.9
3) O=C(O)c1cn(C2CC2)c2cc(N3CCNCC3)c(F)cc2c1=O [CIPROFLOXACIN] ... 0.9

Could you now consider this next molecule?
Q: For the molecule `O=C1COc2ccc(Cl)cc2N1Cc1cn(-c2ccc(F)cc2)nn1` , give its reported MBC.
Ans: 3.9

----------
# Test system: Staphylococcus aureus
# test: Bactericidal activity against Staphylococcus aureus MTCC 96 measured after 24 hrs
# Type: functional
# measurementSetup: MTCC 96, 24 h
Each record here notes measured MBC.
Give just the number in µg/mL; leave the unit off.

For orientation, consider the following solved cases.
1. O=C1COc2ccc(Cl)cc2N1Cc1cn(-c2ccc(F)cc2)nn1 ... 7.8
2. O=C(O)c1cn(C2CC2)c2cc(N3CCNCC3)c(F)cc2c1=O [CIPROFLOXACIN] ... 0.9

Q: Give recorded MBC. `Cc1ccccc1-n1cc(CN2C(=O)COc3ccc(Cl)cc32)nn1`
Ans: 3.9

Q: # return recorded MBC for entry `O=C1COc2ccccc2N1Cc1cn(-c2ccccc2)nn1`
Ans: 7.8

Q: Give recorded MBC. `Cc1ccc(-n2cc(CN3C(=O)COc4ccc(Cl)cc43)nn2)cc1`
Ans: 3.9
